Below is a list of entries, each paired with its recorded FACS titration signal value.
Biological target: MUC1 on HCT116/MUC1 cells (human, UniProt P15941 24-1255)
Sequence (P15941 24-1097, chain 1 of 2): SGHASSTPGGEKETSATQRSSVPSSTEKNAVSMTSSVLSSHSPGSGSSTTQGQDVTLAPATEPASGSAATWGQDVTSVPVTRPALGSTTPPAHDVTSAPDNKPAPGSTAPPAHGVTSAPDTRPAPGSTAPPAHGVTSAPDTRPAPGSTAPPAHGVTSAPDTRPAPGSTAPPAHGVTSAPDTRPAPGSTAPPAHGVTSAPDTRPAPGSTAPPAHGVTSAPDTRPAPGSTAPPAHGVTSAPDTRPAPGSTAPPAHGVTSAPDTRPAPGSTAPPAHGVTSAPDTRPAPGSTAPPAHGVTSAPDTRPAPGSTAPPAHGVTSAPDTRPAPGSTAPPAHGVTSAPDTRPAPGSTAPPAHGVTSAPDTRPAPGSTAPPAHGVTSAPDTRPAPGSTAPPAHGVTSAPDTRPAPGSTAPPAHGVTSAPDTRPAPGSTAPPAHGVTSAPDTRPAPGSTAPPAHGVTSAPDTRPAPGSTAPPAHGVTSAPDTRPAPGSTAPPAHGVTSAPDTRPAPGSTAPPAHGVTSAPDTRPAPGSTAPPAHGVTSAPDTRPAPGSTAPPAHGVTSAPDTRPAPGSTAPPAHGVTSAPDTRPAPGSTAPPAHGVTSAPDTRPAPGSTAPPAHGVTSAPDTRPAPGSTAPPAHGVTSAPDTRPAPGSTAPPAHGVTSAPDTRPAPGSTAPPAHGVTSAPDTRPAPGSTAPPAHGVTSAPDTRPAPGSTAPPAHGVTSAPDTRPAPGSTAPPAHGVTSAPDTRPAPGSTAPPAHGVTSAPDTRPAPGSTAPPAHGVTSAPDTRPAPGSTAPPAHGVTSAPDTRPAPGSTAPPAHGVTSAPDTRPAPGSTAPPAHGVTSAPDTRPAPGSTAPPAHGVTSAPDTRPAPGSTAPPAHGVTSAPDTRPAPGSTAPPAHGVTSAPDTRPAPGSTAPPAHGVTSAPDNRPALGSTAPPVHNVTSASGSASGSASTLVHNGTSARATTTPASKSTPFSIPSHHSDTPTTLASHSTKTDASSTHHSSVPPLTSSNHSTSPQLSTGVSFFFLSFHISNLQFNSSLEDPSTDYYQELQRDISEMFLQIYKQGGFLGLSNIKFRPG
Sequence (P15941 1098-1255, chain 2 of 2): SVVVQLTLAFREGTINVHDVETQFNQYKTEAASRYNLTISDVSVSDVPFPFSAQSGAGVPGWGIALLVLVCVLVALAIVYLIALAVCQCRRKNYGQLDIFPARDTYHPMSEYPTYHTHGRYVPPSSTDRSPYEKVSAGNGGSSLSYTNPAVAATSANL
Experiment: flow cytometry on HCT116/MUC1 cells; antibody at 33.33333 nM
Answer as a number with no unit attached.

Sample answers from the record:
{"Binder": "VH2 + VL3 (antibody, V domains shown) VH: QVQLVQSGAEVKKPGASVKVSCKASGYAFSNFWMNWVRQAPGQGLEWMGQIYPGDGDTNYNGKFKGRVTMTRDTSTSTVYMELSSLRSEDTAVYYCARSYYRSAWFAYWGQGTLVTVSS VL: EIVLTQSPATLSLSPGERATLSCRASQSIGTSIHWYQQKPGQAPRLLIYYASESISGIPARFSGSGSGTDFTLTISSLEPEDFAVYYCQQSNNWPLTFGGGTKVEIK", "FACS titration signal": 43}
{"Binder": "VH1 + VL4 (antibody, V domains shown) VH: QVQLVQSGAEVKKPGSSVKVSCKASGYAFSNFWMNWVRQAPGQGLEWMGQIYPGDGDTNYNGKFKGRVTITADKSTSTAYMELSSLRSEDTAVYYCARSYYRSAWFAYWGQGTLVTVSS VL: AIQLTQSPSSLSASVGDRVTITCRASQSIGTSIHWYQQKPGKAPKLLIYYASESISGVPSRFSGSGSGTDFTLTISSLQPEDFATYYCQQSNNWPLTFGGGTKVEIK", "FACS titration signal": 57.8}
{"Binder": "VH5 + VL2 (antibody, V domains shown) VH: EVQLVQSGAEVKKPGESLKISCKGSGYAFSNFWMNWVRQMPGKGLEWMGQIYPGDGDTNYNGKFKGQVTISADKSISTAYLQWSSLKASDTAMYYCARSYYRSAWFAYWGQGTLVTVSL VL: EIVMTQSPATLSVSPGERATLSCRASQSIGTSIHWYQQKPGQAPRLLIYYASESISGIPARFSGSGSGTEFTLTISSLQSEDFAVYYCQQSNNWPLTFGGGTKVEIK", "FACS titration signal": 48.1}

Next binder, FACS titration signal to be filled in.
Any idea what FACS titration signal was measured for VH1 + VL3 (antibody, V domains shown) VH: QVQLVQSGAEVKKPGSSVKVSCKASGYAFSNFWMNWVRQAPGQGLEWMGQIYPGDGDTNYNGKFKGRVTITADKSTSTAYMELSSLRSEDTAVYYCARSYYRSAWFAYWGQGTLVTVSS VL: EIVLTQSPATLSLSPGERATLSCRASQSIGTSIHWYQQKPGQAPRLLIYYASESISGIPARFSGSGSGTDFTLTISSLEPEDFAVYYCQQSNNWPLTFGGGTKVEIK ?
41
